Assay: Clearance at steady state in Swiss Webster mouse at 10 mg/kg, iv by LC/MS/MS analysis
Format: ADME, organism-based
Parameters: dose 10 mg/kg, route intravenous
Conditions: in vivo
Measured Quantity: clearance (mL/min)
Numeric only. Scale: mL/min

Query: Identify the reported clearance for the following entry. "CCCCCCc1ccc(Oc2ccccc2C#N)c(O)c1"
Response: 7.31

###

Test: Tmax in Swiss Webster mouse at 10 mg/kg, iv by LC/MS/MS analysis
Type: ADME, organism-based
Set-up: dose 10 mg/kg, route intravenous
Conditions: in vivo
Measured Quantity: Tmax (min)
Numeric only. Scale: min

Query: Identify the reported Tmax for the following entry. "CCCCCCc1ccc(Oc2ccccc2C#N)c(O)c1"
Response: 4.8

###

Test: Half life in Swiss Webster mouse at 10 mg/kg, iv by LC/MS/MS analysis
Type: ADME, organism-based
Design: dose 10 mg/kg, route intravenous
Details: in vivo
Measured Quantity: half-life (h)
Numeric only. Scale: h

Query: Identify the reported half-life for the following entry. "CCCCCCc1ccc(Oc2ccccc2C#N)c(O)c1"
Response: 1.01

###

Experiment: AUC (0 to infinity) in Swiss Webster mouse at 10 mg/kg, iv by LC/MS/MS analysis
Format: ADME, organism-based
Parameters: time infinity, dose 10 mg/kg, route intravenous
Conditions: plasma
Measured Quantity: AUC(0-inf) (ng·h/mL)
Numeric only. Scale: ng·h/mL

Query: Identify the reported AUC(0-inf) for the following entry. "CCCCCCc1ccc(Oc2ccccc2C#N)c(O)c1"
Response: 640

###

Assay: AUC (0 to infinity) in Swiss Webster mouse at 40 mg/kg, sc by LC/MS/MS analysis
Assay type: ADME, organism-based
Parameters: time infinity, dose 40 mg/kg, route subcutaneous
Details: plasma
Measured Quantity: AUC(0-inf) (ng·h/mL)
Numeric only. Scale: ng·h/mL

Query: Identify the reported AUC(0-inf) for the following entry. "CCCCCCc1ccc(Oc2ccccc2C#N)c(O)c1"
Response: 1770

###

Test: Bioavailability in Swiss Webster mouse at 40 mg/kg, sc by LC/MS/MS analysis
Type: ADME, organism-based
Conditions: in vivo
Measured Quantity: bioavailability

Query: Identify the reported bioavailability for the following entry. "CCCCCCc1ccc(Oc2ccccc2C#N)c(O)c1"
Response: 69%

###

Assay: Mean residence time in Swiss Webster mouse at 40 mg/kg, sc by LC/MS/MS analysis
Assay type: ADME, organism-based
Design: dose 40 mg/kg, route subcutaneous
Details: in vivo
Measured Quantity: MRT (h)
Numeric only. Scale: h

Query: Identify the reported MRT for the following entry. "CCCCCCc1ccc(Oc2ccccc2C#N)c(O)c1"
Response: 6.47

###

Assay: Cmax in Swiss Webster mouse at 40 mg/kg, sc by LC/MS/MS analysis
Assay type: ADME, organism-based
Parameters: dose 40 mg/kg, route subcutaneous
Conditions: in vivo
Measured Quantity: Cmax (ng/mL)
Numeric only. Scale: ng/mL

Query: Identify the reported Cmax for the following entry. "CCCCCCc1ccc(Oc2ccccc2C#N)c(O)c1"
Response: 280
